B1: TPR t1 (parent)
chain: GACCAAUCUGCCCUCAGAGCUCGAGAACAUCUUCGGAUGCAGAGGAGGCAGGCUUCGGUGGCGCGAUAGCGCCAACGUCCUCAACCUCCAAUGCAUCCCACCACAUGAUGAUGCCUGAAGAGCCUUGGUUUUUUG

- Variants of: B1
- experimentalProtocol: polymerase ribozyme fitness, log enrichment relative to wild type (log ratio); higher = more active; in vitro selection for triplet polymerase activity
parameter: polymerase ribozyme fitness (log ratio)
Could you respond with only the numeric value?

[
  {
    "mutationNotation": "A41U C104U C124U",
    "polymerase ribozyme fitness (log ratio)": 0.576
  },
  {
    "mutationNotation": "G60A G135U",
    "polymerase ribozyme fitness (log ratio)": -0.711
  },
  {
    "mutationNotation": "C72U C85U U109A A121G",
    "polymerase ribozyme fitness (log ratio)": -4.72
  }
]

Entry C89U C124A , polymerase ribozyme fitness (log ratio) reported as 0.152

Entry A24U U116C G128U , polymerase ribozyme fitness (log ratio) reported as -6.51

Source: the RNAGym collection of RNA variant scans (doi:10.1073/pnas.2313332121)
